Recorded values, source patent US11161864B2.

# study-system: wild-type (WT) truncated human STING protein, amino acids 155-379 (Homo sapiens (Human), UniProt Q86WV6, H232R)
# Sequence (Q86WV6 155-379 H232R): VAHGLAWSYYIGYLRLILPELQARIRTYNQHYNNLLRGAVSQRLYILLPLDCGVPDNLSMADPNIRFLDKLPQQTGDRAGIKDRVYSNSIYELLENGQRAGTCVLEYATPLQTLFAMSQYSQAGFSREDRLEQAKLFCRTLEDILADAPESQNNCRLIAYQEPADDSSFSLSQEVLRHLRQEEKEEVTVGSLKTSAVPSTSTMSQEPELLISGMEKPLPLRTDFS
# assay-method-text: Human WT STING [3H] 2′,3′-cGAMP scintillation proximity competition binding assay
# condition-description: read-out: Human WT Binding IC50
List of IC50 values.

CO[C@H]1[C@H]2OP(=O)(S)OCc3nc4cncnc4n3CCOP(=O)(S)OC[C@H]1O[C@H]2n1cnc2c(=O)[nH]c(N)nc21 (single isomer, unassigned) [Example 27C]: < 1 µM
Nc1nc2c(ncn2[C@@H]2O[C@@H]3COP(=O)(S)OCCn4c(nc5cncnc54)COP(=O)(S)O[C@@H]2[C@H]3F)c(=O)[nH]1 (single isomer, unassigned) [Example 25D]: < 1 µM

Now let's try a different one.
I have this compound here, COCc1ncc2nc3n(c2n1)CCOP(=O)(S)OC[C@H]1O[C@@H](n2cnc4c(=O)[nH]c(N)nc42)[C@H](OP(=O)(S)OC3)[C@@H]1F (stereo partly drawn) [Example 40C] , and I need its recorded IC50. 10 to 100 µM
